Would you kindly list GI50 for each of these compounds?
Test system: NCI-H460
Test: NCI tumour cell line growth inhibition, 48 h
The source made the active and inactive calls. No stated cut-off is given here; in the data, active = GI50 up to about 1.1 µM and inactive = higher.

Form field, GI50 with NCI-H460, item CC(C(=O)N1C(=O)N(C(=O)[C@H](C)C(O)c2ccccc2)[C@H](c2ccccc2)[C@H]1c1ccccc1)[C@@H](O)c1ccccc1 (stereo not given in full) : 22.4 µM (inactive)

Form field, GI50 with NCI-H460, item `Cc1sc(N/N=C2\C(=O)Nc3ccccc32)nc1-c1ccccc1` : 10.2 µM (inactive)

Form field, GI50 with NCI-H460, item CNC(=O)C(C)NC(=O)C(Cc1ccccc1)NC(=O)OC(C)(C)C (stereo not given) : > 100 µM (inactive)

Form field, GI50 with NCI-H460, item `Cc1cc(O)no1` : > 100 µM (inactive)

Form field, GI50 with NCI-H460, item Fc1cccc(F)c1C1SCc2nc3ccc(Cl)cc3n21 (stereo not given) : > 100 µM (inactive)

Form field, GI50 with NCI-H460, item `C#CCOCn1cnc2c(Cl)ncnc21` : > 100 µM (inactive)

Form field, GI50 with NCI-H460, item `CN/N=C(/C=C/c1ccccc1)C(C)C` : > 10 µM (inactive)

Form field, GI50 with NCI-H460, item `C/C(CC(=O)NCCc1ccccc1)=N\NS(=O)(=O)c1ccc(C)cc1` : > 100 µM (inactive)

Form field, GI50 with NCI-H460, item `CC(=O)c1c(N=[N+]=[N-])c2cccc3c2n(c1=O)CCC3` : 14.4 µM (inactive)

Form field, GI50 with NCI-H460, item C/C(C=O)=C1\C(O)C[C@]1(C)C1CC(C)(C)CC1O (stereo not given in full) : > 100 µM (inactive)

###

Tested on: SW-620
Assay: NCI tumour cell line growth inhibition, 48 h
Calls of active or inactive are those of the source. Rule as the data show it: active = GI50 up to about 1.1 µM and inactive = higher. Where a SMILES comes first, the peptide text is derived from it. [ ]: non-standard residue; d: D form. ξ: configuration not given here. ξThz(5,5-Me2) = CC1(C)SCNC1C(=O)O
I would appreciate it if you answered using one of these outcomes: YES for active, NO for inactive

Prompt: Write down the call the test reported for this compound. Item: CSCC[C@H](NC(=O)[C@H](CC(C)C)NC(=O)[C@H](Cc1c[nH]cn1)NC(=O)CNC(=O)C1N(C(=O)[C@@H](C)NC(=O)[C@H](Cc2c[nH]c3ccccc23)NC(=O)[C@H](CCC(N)=O)NC(=O)[C@@H](N)CC(N)=O)CSC1(C)C)C(N)=O (stereo not given in full) (H-NQW[dA][ξThz(5,5-Me2)]GHLM-NH2)
Completion: NO

Prompt: Write down the call the test reported for this compound. Item: `CN(C)CCCNc1cnc2cc3ccccc3cc2n1`
Completion: NO

Prompt: Write down the call the test reported for this compound. Item: `O=C1c2ccccc2-c2c1c(-c1ccc([N+](=O)[O-])cc1)nc1ccc3ccccc3c21`
Completion: NO

Prompt: Write down the call the test reported for this compound. Item: `Cc1sc2ncnc(NCCc3ccccc3)c2c1C`
Completion: NO

Prompt: Write down the call the test reported for this compound. Item: `C[C@@]12C[C@@H](c3ccccc3O1)N1Cc3ccccc3CSC1=N2`
Completion: NO

Prompt: Write down the call the test reported for this compound. Item: `C=CC(C)(C)c1cc([C@@H]2COc3cc(O)ccc3C2=O)c(O)c(OC)c1OC`
Completion: NO

Prompt: Write down the call the test reported for this compound. Item: Fc1cccc(F)c1C1SCc2nc3ccc(Cl)cc3n21 (stereo not given)
Completion: NO

Prompt: Write down the call the test reported for this compound. Item: Cc1cn(C2CC(OC3CCCCO3)C(CO)O2)c(=O)[nH]c1=O (stereo not given)
Completion: NO

Prompt: Write down the call the test reported for this compound. Item: O=C(/C(=N\Nc1ccc([N+](=O)[O-])cc1[N+](=O)[O-])NC12CC3CC(CC(C3)C1)C2)C(Br)C(=O)c1ccccc1 (stereo not given)
Completion: YES

Prompt: Write down the call the test reported for this compound. Item: `O=C1Nc2ccccc2/C1=N/N1C(=O)/C(=C/c2ccccc2S)N=C1c1ccccc1`
Completion: NO

Prompt: Write down the call the test reported for this compound. Item: C=C1CC(OC)(C(O)C(=O)N[C@H]2OCO[C@H]3C2O[C@H](C[C@@H](CO)OC)C(C)(C)C3OC)O[C@H](C)[C@@H]1C (stereo not given in full)
Completion: YES

Prompt: Write down the call the test reported for this compound. Item: `COc1cc(/C=N/N=C2NCCCN2)ccc1O`
Completion: NO

Prompt: Write down the call the test reported for this compound. Item: `CCOC(=O)CN1C(=O)c2cc([N+](=O)[O-])cc3cc([N+](=O)[O-])cc(c23)C1=O`
Completion: NO

Prompt: Write down the call the test reported for this compound. Item: `CCOc1ccccc1NC(=O)C(=O)CC(=O)c1sc(Nc2nnc(-c3ccc(Cl)c(Cl)c3)o2)nc1C`
Completion: NO

Prompt: Write down the call the test reported for this compound. Item: COC1(OC)CC2C(=O)N(Cc3ccccc3)C1C=C2S(=O)(=O)c1ccccc1 (stereo not given)
Completion: NO

Prompt: Write down the call the test reported for this compound. Item: `CN(C)C(=O)NC(=S)N(C)C`
Completion: NO

Prompt: Write down the call the test reported for this compound. Item: `CN/N=C(/C=C/c1ccccc1)C(C)C`
Completion: NO

Prompt: Write down the call the test reported for this compound. Item: COc1cc2c(cc1Oc1c(Oc3c(O)c(OC)cc4c3C(CC(C)C)N(C)CC4)c(OC)cc3c1C(CC(C)C)N(C)CC3)C(CC(C)C)N(C)CC2 (stereo not given)
Completion: YES

Prompt: Write down the call the test reported for this compound. Item: `Cc1ncc([N+](=O)[O-])n1CCNC(=O)CCn1ccnc1[N+](=O)[O-]`
Completion: NO

Prompt: Write down the call the test reported for this compound. Item: Nc1ncnc2c1ncn2CCOC(c1ccccc1)P(=O)(O)O (stereo not given)
Completion: NO

Prompt: Write down the call the test reported for this compound. Item: CC(=O)C1C(=O)C(=O)N(c2ccc(Br)cc2)C1=O (stereo not given)
Completion: NO

Prompt: Write down the call the test reported for this compound. Item: CC1C(NNC(N)=O)Oc2cc3c(cc2C1c1ccccc1O)OCO3 (stereo not given)
Completion: NO

Prompt: Write down the call the test reported for this compound. Item: `COc1cc(/C=C2\C(=O)N(C(=O)Cc3ccccc3)N=C2C)cc(OC)c1OC`
Completion: NO

Prompt: Write down the call the test reported for this compound. Item: `COc1cccc2c1CCc1cc3c(N)nc(N)nc3nc1-2`
Completion: NO

Prompt: Write down the call the test reported for this compound. Item: CC[C@]1(c2ccc3c(c2)OCO3)C=[N+]([O-])O[C@H](OC2CCCC2(c2ccccc2)c2ccccc2)[C@@H]1OC(C)=O (stereo not given in full)
Completion: NO

Prompt: Write down the call the test reported for this compound. Item: `CCOc1nnnc2[nH]cnc12`
Completion: NO

Prompt: Write down the call the test reported for this compound. Item: `C=C(CCCO)[C@@H]1CC[C@@](C)(O)[C@H]1C`
Completion: NO

Prompt: Write down the call the test reported for this compound. Item: `CC1(C)OB(O)OC1(C)C`
Completion: NO

Prompt: Write down the call the test reported for this compound. Item: `NS(=O)(=O)c1ccc(NC(=S)NC(=O)Nc2ccc(Cl)c(Cl)c2)cc1`
Completion: NO

Prompt: Write down the call the test reported for this compound. Item: O=S(=O)(O)C(c1ccccc1)C(O)c1ccccc1 (stereo not given)
Completion: NO

###

Test system: MOLT-4
Assay: NCI tumour cell line growth inhibition, 48 h
Activity calls are given as the source filed them. Rule as the data show it: active = GI50 up to about 1.1 µM and inactive = higher.
I would appreciate it if you answered using one of these outcomes: YES (active), NO (inactive)

Prompt: Write down the call the test reported for this compound. Item: Cc1coc2c1CC1OC1(C)CCC1OC1(C)C2 (configuration not stated)
Completion: NO

Prompt: Write down the call the test reported for this compound. Item: `COc1ccc2c(c1[N+](=O)[O-])CC[C@@H]1[C@@H]2CC[C@]2(C)C(=O)CC[C@@H]12`
Completion: NO

Prompt: Write down the call the test reported for this compound. Item: `Cn1c(=O)c2sc3c4sc5c(=O)n(C)c6ccccc6c5c4sc3c2c2ccccc21`
Completion: NO

Prompt: Write down the call the test reported for this compound. Item: COC1=C(OC)C23CCc4ccc(OC)c(O)c4C2(CCN3)CC1=O (configuration not stated)
Completion: NO

Prompt: Write down the call the test reported for this compound. Item: CCCC(=O)OCC(O)CO (configuration not stated)
Completion: NO

Prompt: Write down the call the test reported for this compound. Item: CCCCCCNC(=O)CCC(NC(=O)c1ccc(N(C)Cc2cnc3nc(N)nc(N)c3n2)cc1)C(=O)NCCCCCC (configuration not stated)
Completion: NO

Prompt: Write down the call the test reported for this compound. Item: `Brc1ccc2[nH]cc(-c3csc(-c4ccccn4)n3)c2c1`
Completion: NO

Prompt: Write down the call the test reported for this compound. Item: C=C(Cl)C(C)(Cl)CCC(Br)C(C)(C)Cl (configuration not stated)
Completion: NO

Prompt: Write down the call the test reported for this compound. Item: `O=c1[nH]c(=O)c2ncn(-c3ccc([N+](=O)[O-])cn3)c2[nH]1`
Completion: NO

Prompt: Write down the call the test reported for this compound. Item: `COc1ccc(OC)c(/C=C/c2ccnc3ccccc23)c1`
Completion: YES

Prompt: Write down the call the test reported for this compound. Item: COC1=CC(O)(CC(N)=O)c2ccccc2C1=O (configuration not stated)
Completion: NO

Prompt: Write down the call the test reported for this compound. Item: `CN(C)CCNC(=O)c1cc(-c2nccn2C)nc2ccccc12`
Completion: NO

Prompt: Write down the call the test reported for this compound. Item: `CC1(C)CC(=O)C2=C(C1)NC1=C(C(=O)CC(C)(C)C1)C2c1ccc([N+](=O)[O-])cc1`
Completion: NO

Prompt: Write down the call the test reported for this compound. Item: `O=C1C(=CNC(=S)c2ccccc2)C(=O)c2ccccc21`
Completion: NO

Prompt: Write down the call the test reported for this compound. Item: O=C1CC(CC(O)C(O)C(O)CO)CC(=O)N1 (configuration not stated)
Completion: NO

Prompt: Write down the call the test reported for this compound. Item: `CCS(=O)(=O)CCn1cnc2c1c(=O)n(C)c(=O)n2C`
Completion: NO

Prompt: Write down the call the test reported for this compound. Item: CC(C)CC(NC(=O)C(CI)Cc1ccccc1)C(=O)Nc1ccccc1 (configuration not stated)
Completion: NO

Prompt: Write down the call the test reported for this compound. Item: `COC(=O)c1nc(-c2ccc(Cl)c(Cl)c2)nc2ccc(Cl)cc12`
Completion: NO

Prompt: Write down the call the test reported for this compound. Item: `CCOc1ccccc1NC(=O)C(=O)CC(=O)c1sc(Nc2nnc(-c3ccc(Cl)c(Cl)c3)o2)nc1C`
Completion: NO

Prompt: Write down the call the test reported for this compound. Item: COc1cc(/C=C2/C(=O)N(C(=O)OCc3ccccc3)C(Cc3cc(OC)c(OC)c(C)c3OC)C(=O)N2Cc2ccccc2)c(OC)c(C)c1OC (configuration not stated)
Completion: NO

Prompt: Write down the call the test reported for this compound. Item: `COc1cc(-c2c(C#N)c(N)c(C#N)c3c2COc2ccccc2-3)cc(OC)c1OC`
Completion: NO

Prompt: Write down the call the test reported for this compound. Item: O=C1c2ccccc2C2(O)c3cc4ccccc4cc3OC12O (configuration not stated)
Completion: NO
